method notes: Stability of the aqueous contrast agent solution at room temperature, relative content by HPLC
Type: physicochemical
study conditions: aqueous solution 0.1 mg/mL, 48 h

>  <smiles>
CC1(C)C(/C=C/C2=C(Oc3ccc(CCC(=O)NCCCCCCCCCCNC(=O)CN4CCN(CC(=O)[O-])CCN(CC(=O)[O-])CCN(CC(=O)[O-])CC4)cc3)C(=C/C=C3/N(CCCCS(=O)(=O)O)c4ccc5ccccc5c4C3(C)C)/CCC2)=[N+](CCCCS(=O)(=O)O)c2ccc3ccccc3c21.[Gd+3]

>  <decomposition rate %>
<LOQ

$$$$
>  <smiles>
CC1(C)C(=CC=C2CCCC(C=CC3=[N+](CCCCS(=O)(=O)O)c4ccc5ccccc5c4C3(C)C)=C2NCCCOCCOCCOCCCNC(=O)CN2CCN(CC(=O)[O-])CCN(CC(=O)[O-])CCN(CC(=O)[O-])CC2)N(CCCCS(=O)(=O)O)c2ccc3ccccc3c21.[Gd+3]

>  <decomposition rate %>
65.4%

$$$$
>  <smiles>
CC1(C)C(/C=C/C2=C(Oc3ccc(CCC(=O)NCCOCCOCCOCCNC(=O)CN4CCN(CC(=O)[O-])CCN(CC(=O)[O-])CCN(CC(=O)[O-])CC4)cc3)C(=C/C=C3/N(CCCCS(=O)(=O)O)c4ccc5ccccc5c4C3(C)C)/CCC2)=[N+](CCCCS(=O)(=O)O)c2ccc3ccccc3c21.[Gd+3]

>  <decomposition rate %>
<LOQ

$$$$
>  <smiles>
CC1(C)C(/C=C/C2=C(Oc3ccc(CCC(=O)NCCOCCOCCNC(=O)CN4CCN(CC(=O)[O-])CCN(CC(=O)[O-])CCN(CC(=O)[O-])CC4)cc3)C(=C/C=C3/N(CCCCS(=O)(=O)O)c4ccc5ccccc5c4C3(C)C)/CCC2)=[N+](CCCCS(=O)(=O)O)c2ccc3ccccc3c21.[Gd+3]

>  <decomposition rate %>
<LOQ

$$$$

* * *

System: ICR female mice
study conditions: mouse, in vivo, iv
property measured: MTD (mg/kg)

>  <molecule>
CC1(C)C(/C=C/C2=C(Oc3ccc(CCC(=O)NCCOCCOCCOCCNC(=O)CN4CCN(CC(=O)[O-])CCN(CC(=O)[O-])CCN(CC(=O)[O-])CC4)cc3)C(=C/C=C3/N(CCCCS(=O)(=O)O)c4ccc5ccccc5c4C3(C)C)/CCC2)=[N+](CCCCS(=O)(=O)O)c2ccc3ccccc3c21.[Gd+3] [PL-002]

>  <measurement>
125

$$$$
>  <molecule>
CC1(C)C(/C=C/C2=C(Oc3ccc(CCC(=O)NCCOCCOCCNC(=O)CN4CCN(CC(=O)[O-])CCN(CC(=O)[O-])CCN(CC(=O)[O-])CC4)cc3)C(=C/C=C3/N(CCCCS(=O)(=O)O)c4ccc5ccccc5c4C3(C)C)/CCC2)=[N+](CCCCS(=O)(=O)O)c2ccc3ccccc3c21.[Gd+3] [PL-004]

>  <measurement>
125

$$$$
>  <molecule>
CC1(C)C(/C=C/C2=C(Oc3ccc(CCC(=O)NCCCCCCCCCCNC(=O)CN4CCN(CC(=O)[O-])CCN(CC(=O)[O-])CCN(CC(=O)[O-])CC4)cc3)C(=C/C=C3/N(CCCCS(=O)(=O)O)c4ccc5ccccc5c4C3(C)C)/CCC2)=[N+](CCCCS(=O)(=O)O)c2ccc3ccccc3c21.[Gd+3] [PL-003]

>  <measurement>
150

$$$$
>  <molecule>
CC1(C)C(=CC=C2CCCC(C=CC3=[N+](CCCCS(=O)(=O)O)c4ccc5ccccc5c4C3(C)C)=C2NCCCOCCOCCOCCCNC(=O)CN2CCN(CC(=O)[O-])CCN(CC(=O)[O-])CCN(CC(=O)[O-])CC2)N(CCCCS(=O)(=O)O)c2ccc3ccccc3c21.[Gd+3] [PL-001]

>  <measurement>
75

$$$$
